Target: 5-hydroxytryptamine receptor 2A (Homo sapiens)
Assay: 5-hydroxytryptamine receptor 2A (HTR2A) small molecule agonists, cell-based qHTS assay (AID 1963587); note: nearly all actives have a fitted effect of over 30% in size
Conditions: HTR2A-CHO cells, calcium flux fluorescence, agonist mode; series mostly up to 76.8 µM
Inconclusive results are not listed. Activity calls are given as the source filed them. Calls come from the whole dose curve.
Use one of these outcomes when replying: 1 (active), 0 (inactive)

Examples with answers:
ClC(Cl)Br	0
[C-]1=CC=CC1.[Cl][Zr+2][Cl].c1cc[cH-]c1	0
ClSC(Cl)(Cl)Cl	0
CN=CNc1ccc(C)cc1C	0
Cc1ccc2ccccc2c1C	0

-- ask In this assay, the call recorded for `O=C(O)c1cccc(Cl)c1` was what?
-- reply 0

-- ask In this assay, the call recorded for `COc1ccccc1N1CCNCC1` was what?
-- reply 1

-- ask In this assay, the call recorded for `CCCCCCCCP(=O)(O)O` was what?
-- reply 0

====

Experiment: Nuclear factor erythroid 2-related factor 2/antioxidant responsive element (Nrf2/ARE) small molecule agonists: luciferase reporter gene qHTS assay in human keratinocytes (AID 1919969); note: nearly all actives have a fitted effect of over 35% in size; note: potency is the fitted concentration of half-maximal effect
Conditions: KeratinoSens HaCaT ARE-luciferase, luminescence, 24 h; series mostly up to 92.4 µM
Results filed as inconclusive are left out. The source made the active and inactive calls. Calls follow the shape of the full dose curve.
Assay endpoint: Potency

CCc1ccccc1N	inactive
Cc1ccc(-c2c(Cl)nc(C#N)n2S(=O)(=O)N(C)C)cc1	9.68 µM (active)
CCCCCCCCP(=O)(O)O	inactive
CCOP(=S)(NC(C)C)Oc1ccccc1C(=O)OC(C)C (centres undefined)	inactive
C=COC(C)=O	inactive

-- ask State, in one line, measured Potency of `CCOC(=O)Cc1ccccc1`
-- reply inactive

-- ask State, in one line, measured Potency of `CN1C(=O)CN=C(c2ccccc2)c2cc([N+](=O)[O-])ccc21`
-- reply inactive

====

Assay: p53 small molecule agonists, cell-based qHTS assay with rat liver microsomes: qHTS cell viability counter screen (AID 1963580); note: nearly all actives have a fitted effect of over 45% in size
Details: p53RE-bla HCT-116 + rat microsomes, ATP viability, 16 h; series mostly up to 66 µM
Inconclusive results are not listed. The source made the active and inactive calls. Calls come from the whole dose curve.
Use one of these outcomes when replying: active, inactive

Examples with answers:
O=C(O)c1cc(I)cc(I)c1I	inactive
COP(=S)(OC)Oc1nc(Cl)c(Cl)cc1Cl	inactive
C[C@@H]1CC[C@@]2(OC1)O[C@H]1[C@@H](O)[C@H]3[C@@H]4CC[C@H]5C[C@@H](O[C@@H]6O[C@H](CO)[C@H](O[C@@H]7O[C@H](CO)[C@@H](O)[C@H](O[C@@H]8OC[C@@H](O)[C@H](O)[C@H]8O)[C@H]7O[C@@H]7O[C@H](CO)[C@@H](O)[C@H](O[C@@H]8O[C@H](CO)[C@@H](O)[C@H](O)[C@H]8O)[C@H]7O)[C@H](O)[C@H]6O)[C@H](O)C[C@]5(C)[C@H]4CC[C@]3(C)[C@H]1[C@@H]2C	active
CC(C)c1c(CN(C)C(C)Cc2ccccc2)n(C)n(-c2ccccc2)c1=O (stereo not given)	inactive
CON(C)C(=O)Nc1ccc(Br)c(Cl)c1	inactive
CCCC[N+](CCCC)(CCCC)CCCC	inactive
CC(Cc1ccc(OCC(=O)O)cc1)NCC(O)c1csc(C(F)(F)F)n1 (stereo not given)	inactive
CC(C)=CC1C(C(=O)OCc2coc(Cc3ccccc3)c2)C1(C)C (stereo not given)	inactive
CCOc1cccc(C2(N3CCN(c4ccccc4)CC3)CCC(C)CC2)c1 (stereo not given)	inactive
O=C(Cc1ccccc1)OCCc1ccccc1	inactive

-- ask In this assay, the call recorded for `C[As+](C)(C)CC(=O)[O-]` was what?
-- reply inactive

====

Target: 5-hydroxytryptamine receptor 2A (Homo sapiens) (UniProt P28223)
Sequence (P28223 whole entry, looked up): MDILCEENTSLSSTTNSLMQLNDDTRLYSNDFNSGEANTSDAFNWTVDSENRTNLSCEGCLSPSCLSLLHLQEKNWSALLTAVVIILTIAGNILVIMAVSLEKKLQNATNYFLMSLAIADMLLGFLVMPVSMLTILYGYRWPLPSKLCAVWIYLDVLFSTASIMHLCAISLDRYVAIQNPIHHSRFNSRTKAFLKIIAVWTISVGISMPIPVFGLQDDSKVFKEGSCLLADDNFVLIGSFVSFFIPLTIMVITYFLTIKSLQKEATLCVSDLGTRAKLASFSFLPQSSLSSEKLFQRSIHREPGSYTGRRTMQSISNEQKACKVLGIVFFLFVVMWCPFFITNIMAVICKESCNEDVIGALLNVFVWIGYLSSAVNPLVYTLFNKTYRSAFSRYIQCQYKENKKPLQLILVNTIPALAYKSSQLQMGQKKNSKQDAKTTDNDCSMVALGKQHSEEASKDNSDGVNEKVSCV
Assay: 5-hydroxytryptamine receptor 2A (HTR2A) small molecule antagonists, cell-based qHTS assay (AID 1963586); note: nearly all actives have a fitted effect of over 45% in size
Details: HTR2A-CHO cells, DOI-induced calcium flux, fluorescence; series mostly up to 61.5 µM
Results filed as inconclusive are left out. The source made the active and inactive calls. Calls follow the shape of the full dose curve.
Use one of these outcomes when replying: TRUE = active, FALSE = inactive

Examples with answers:
CCOC(=O)NC(C)(C)Cc1ccc(Cl)cc1	FALSE
Cc1cc(C(C)(C)c2ccc(O)c(C)c2)ccc1O	TRUE
CC(C1CC1)C(O)(Cn1cncn1)c1ccc(Cl)cc1 (stereo not drawn)	FALSE

-- ask In this assay, the call recorded for `CN1C[C@@H](NS(=O)(=O)N(C)C)C[C@@H]2c3cccc4c3c(cn4C)C[C@H]21` was what?
-- reply TRUE

-- ask In this assay, the call recorded for `COc1nn(C(=O)NS(=O)(=O)c2ccccc2OC(F)(F)F)c(=O)n1C` was what?
-- reply FALSE

-- ask In this assay, the call recorded for `CCOC(=O)CCl` was what?
-- reply FALSE

-- ask In this assay, the call recorded for `O=S1(=O)OC(c2cc(Br)c(O)c(Br)c2)(c2cc(Br)c(O)c(Br)c2)c2ccccc21` was what?
-- reply FALSE

-- ask In this assay, the call recorded for `N=C(N)[Se]` was what?
-- reply FALSE

====

Biological target: 5-hydroxytryptamine receptor 2A (Homo sapiens)
Test: 5-hydroxytryptamine receptor 2A (HTR2A) small molecule agonists, cell-based qHTS assay (AID 1963587); note: nearly all actives have a fitted effect of over 30% in size
Conditions: HTR2A-CHO cells, calcium flux fluorescence, agonist mode; series mostly up to 76.8 µM
Procedure: National Center for Advancing Translational Sciences [NCATS] Division of Preclinical Innovation [DPI] U.S. Environmental Protection Agency [EPA] National Institutes of Environmental Health Sciences [NIEHS] National Toxicology Program [NTP] […] HTR2A-CHO cells were dispensed at 2000 cells/3uL/well in 1536-well black-clear bottom plates using a Multidrop Dispenser. […] The fluorescence intensity in the plates was measured using FDSS 7000EX kinetic plate reader for 2 min at 1 sec intervals.
Results filed as inconclusive are left out. Activity calls are given as the source filed them. The call rests on the fitted dose curve.
Use one of these outcomes when replying: Yes = active, No = inactive

Examples with answers:
CCN(CC)C(=O)Cl	No
N#C/C=C/c1ccccc1	No
CCOP(=O)(OCC)Oc1nc(Cl)c(Cl)cc1Cl	No
ClC1=C(Cl)C2(Cl)C(CBr)CC1(Cl)C2(Cl)Cl (configuration not stated)	No
C=CC[C@]1(O)CC[C@H]2[C@@H]3CCC4=CC(=O)CCC4=C3C=C[C@@]21C	No

-- ask In this assay, the call recorded for N#CC(CCc1ccc(Cl)cc1)(Cn1cncn1)c1ccccc1 (configuration not stated) was what?
-- reply No

-- ask In this assay, the call recorded for `CC(=O)[O-].CC(=O)[O-].CC(=O)[O-].[Cr+3]` was what?
-- reply No

-- ask In this assay, the call recorded for `CC(C)N(C(=O)COc1nnc(C(F)(F)F)s1)c1ccc(F)cc1` was what?
-- reply No

-- ask In this assay, the call recorded for `CC(C)(C)c1ccc(OP(=O)(Oc2ccccc2)Oc2ccccc2)cc1` was what?
-- reply No

-- ask In this assay, the call recorded for `CNC(=O)N(C)c1nc2ccccc2s1` was what?
-- reply No

-- ask In this assay, the call recorded for `O=C1c2ccccc2C(=O)C1C(=O)C(c1ccccc1)c1ccccc1` was what?
-- reply No

-- ask In this assay, the call recorded for `ClC1=C(Cl)[C@]2(Cl)[C@H]3[C@H]([C@@H]4C=C[C@H]3C4)[C@@]1(Cl)C2(Cl)Cl` was what?
-- reply No

====

Experiment: Nuclear factor erythroid 2-related factor 2/antioxidant responsive element (Nrf2/ARE) small molecule agonists: qHTS cell viability counter screen in human keratinocytes (AID 1919968); note: nearly all actives have a fitted effect of over 55% in size
Conditions: KeratinoSens HaCaT ARE cells viability, CellTiter-Fluor, 24 h; series mostly up to 92.4 µM
Inconclusive results are not listed. Calls of active or inactive are those of the source. The call rests on the fitted dose curve; in most records, active means well fitted cell-killing curve with a large enough effect in the repeat runs; inconclusive means weak or mixed curves, or effect the other way; inactive means flat fitted curve, though single readings scatter.
Use one of these outcomes when replying: active, inactive

Examples with answers:
CCOP(O)OCC	inactive
COP(=O)(OC)O/C(=C/Cl)c1cc(Cl)c(Cl)cc1Cl	inactive
COP(=S)(OC)Oc1cc(Cl)c(I)cc1Cl	inactive
O=c1[nH]c2ccccc2o1	inactive
Oc1ccc(I)cc1	inactive

-- ask In this assay, the call recorded for `O.O.O.O=C([O-])[C@H]([O-])[C@@H]([O-])C(=O)[O-].O=C([O-])[C@H]([O-])[C@@H]([O-])C(=O)[O-].[K+].[K+].[Sb+3].[Sb+3]` was what?
-- reply inactive

-- ask In this assay, the call recorded for CC[N+]1(C)CCCC(OC(=O)C(O)(c2ccccc2)c2ccccc2)C1 (stereo not drawn) was what?
-- reply inactive

-- ask In this assay, the call recorded for `[CH3][Hg][Cl]` was what?
-- reply active

====

Target: Beta-2 adrenergic receptor (Homo sapiens)
Assay: Adrenergic beta2 receptor (ADRB2) small molecule antagonists, cell-based qHTS assay (AID 1963592); note: nearly all actives have a fitted effect of over 50% in size
Conditions: CHO-ADRB2 cells, isoproterenol-stimulated cAMP HTRF ratio, 0.5 h; series mostly up to 92.4 µM
Results filed as inconclusive are left out. Active and inactive are the calls of the source. Calls come from the whole dose curve.
Use one of these outcomes when replying: T = active, F = inactive

Examples with answers:
Oc1cc(Cl)cc(Cl)c1	F
CN1CCC(O)(c2ccc(F)cc2)C(C(=O)c2ccc(F)cc2)C1 (stereo unspecified)	F
CC(=O)[O-].CC(=O)[O-].CC(=O)[O-].[Cr+3]	F
CCCCn1cc[n+](C)c1.[Cl][Fe-]([Cl])([Cl])[Cl]	F
CN/C(=N\[N+](=O)[O-])NCC1CCOC1 (stereo unspecified)	F
CC(C)CP(=S)(S)CC(C)C	F

-- ask In this assay, the call recorded for `O=c1[nH]c(Cl)c(Cl)cc1Cl` was what?
-- reply F

-- ask In this assay, the call recorded for CC(C)NCC(O)c1ccccc1Cl (stereo unspecified) was what?
-- reply F

-- ask In this assay, the call recorded for O=c1c(C2CC(c3ccc(-c4ccc(Br)cc4)cc3)Cc3ccccc32)c(O)sc2ccccc12 (stereo unspecified) was what?
-- reply F

-- ask In this assay, the call recorded for `CCOC(=O)c1cn2nc(OP(=S)(OCC)OCC)cc2nc1C` was what?
-- reply F

-- ask In this assay, the call recorded for `CC(C)(OO)c1ccccc1` was what?
-- reply F

-- ask In this assay, the call recorded for `CCCCNP(N)(N)=S` was what?
-- reply F

-- ask In this assay, the call recorded for CC(C)(C)NCC(O)c1ccccc1Cl (stereo unspecified) was what?
-- reply F

-- ask In this assay, the call recorded for C#CCC1=C(C)C(OC(=O)C2C(C=C(C)C)C2(C)C)CC1=O (stereo unspecified) was what?
-- reply F

-- ask In this assay, the call recorded for `N#CSCc1ccccc1` was what?
-- reply F

-- ask In this assay, the call recorded for `CCOC(=O)[C@]1(c2ccccc2)Oc2ccccc2[C@@H]1N` was what?
-- reply F

-- ask In this assay, the call recorded for `CC(=O)Nc1cc([As](=O)(O)O)ccc1O` was what?
-- reply F

-- ask In this assay, the call recorded for `O=NN1CCN(N=O)CC1` was what?
-- reply F

-- ask In this assay, the call recorded for `CNNC` was what?
-- reply F

-- ask In this assay, the call recorded for `CCc1cccc(C)c1N(C(=O)CCl)[C@@H](C)COC` was what?
-- reply F

-- ask In this assay, the call recorded for `[As]#[In]` was what?
-- reply F

-- ask In this assay, the call recorded for COCc1cnc(C2=NC(C)(C(C)C)C(=O)N2)c(C(=O)O)c1 (stereo unspecified) was what?
-- reply F

-- ask In this assay, the call recorded for `C[N+](C)(C)CCOC(=O)C(O)(c1ccccc1)c1ccccc1` was what?
-- reply F

-- ask In this assay, the call recorded for `Cc1cccc2sc3nncn3c12` was what?
-- reply F

-- ask In this assay, the call recorded for `CC(=O)[O-].CC(=O)[O-].O.O.[Cd+2]` was what?
-- reply F

-- ask In this assay, the call recorded for `Cc1ccccc1C(=O)Nc1cccc(OC(C)C)c1` was what?
-- reply F

-- ask In this assay, the call recorded for `O=C(Nc1ccccc1)N(Cc1ccc(Cl)cc1)C1CCCC1` was what?
-- reply F

-- ask In this assay, the call recorded for `Oc1cccc(Cl)c1` was what?
-- reply F

-- ask In this assay, the call recorded for `CNC(=O)Oc1ccccc1C(C)C` was what?
-- reply F

-- ask In this assay, the call recorded for `N#Cc1c2ccccc2cc2ccccc12` was what?
-- reply F
